system: Huh-7.5.1 cells; assay: Cell viability in the chemical screen (Cell TiterGlo); settings: 10 µM compound, 72 h
Classification field: T = Viability Percent DMSO at or over 100 Percent DMSO; F = Viability Percent DMSO under 100 Percent DMSO.

// query Determine whether measured Viability Percent DMSO meets or exceeds 100 Percent DMSO for CCOC(=O)c1ccc(OCCC2CCN(c3ccc(C)nn3)CC2)cc1
// result T

// query Entry to check: Cc1cc(F)c(C(=O)Nc2cccc(-c3nncn3C(C)C)n2)cc1-n1cnc(C2CC2)c1
// result T

// query Now the compound COc1ccc([C@H]2OC[C@H]3[C@@H]2CO[C@H]3c2ccc(O[C@@H]3O[C@H](CO)[C@@H](O)[C@H](O)[C@H]3O)c(OC)c2)cc1OC
// result T

// query Thanks! And O=C(O)P(=O)(O)O [Foscarnet sodium] ?
// result F

// query Would you kindly repeat that for C[C@H](NC(=O)C(=O)Nc1ccccc1C(C)(C)C)C(=O)N[C@@H](CC(=O)O)C(=O)COc1c(F)c(F)cc(F)c1F ?
// result F

// query Next compound up: CN(C)C[C@H](O)Cn1c2ccc(Br)cc2c2cc(Br)ccc21 (racemic)
// result F

// query O=c1[nH]c(=O)n([C@H]2C[C@H](O)[C@@H](CO)O2)cc1F , same question.
// result F

// query Then what about the compound CCCCCCCCCC(=O)O[C@H]1CC[C@H]2[C@@H]3CCC4=CC(=O)CC[C@@H]4[C@H]3CC[C@]12C [Nandrolone decanoate] ?
// result T

// query Could you do the same for Nc1nc2c(ncn2CCC(CO)CO)c(=O)[nH]1 , please?
// result F

// query Please give the result for O=C(Nc1nc2ccc3scnc3c2s1)c1ccc2ccccc2c1 too.
// result T

// query // repeat for O=C(O[C@@H]1Cc2c(O)cc(O)cc2O[C@@H]1c1cc(O)c(O)c(O)c1)c1cc(O)c(O)c(O)c1 [(-)-Epigallocatechin Gallate] and report
// result T

// query Repeat for the following compound: O=C(Nc1ccc(O)cc1)c1ccccc1O
// result F

// query And what about the compound Nc1nc(NC2CC2)c2ncn([C@H]3C=C[C@@H](CO)C3)c2n1 ?
// result T

// query Another compound to look at: Cc1cnc(C(=O)N[C@H]2CCCCC/C=C\[C@@H]3C[C@@]3(C(=O)NS(=O)(=O)C3CC3)NC(=O)[C@@H]3C[C@@H](Oc4nc5ccccc5c5ccccc45)CN3C2=O)cn1
// result F

// query Item: O=C1Nc2ccc(Cl)cc2[C@@](C#CC2CC2)(C(F)(F)F)O1
// result T

// query Input CC(=O)OCC(=O)[C@@]1(O)CC[C@H]2[C@@H]3CCC4=CC(=O)C=C[C@]4(C)[C@@]3(Cl)[C@@H](Cl)C[C@@]21C [Dichlorisone Acetate]
// result T

// query Repeat for the following compound: Nc1nc2c(ncn2COCCO)c(=O)[nH]1
// result T

// query Further, for Clc1ccc(Cn2c(CN3CCCC3)nc3ccccc32)cc1 ?
// result T

// query // repeat for Cl.N=C(N=C(N)N)N1CCOCC1 [Moroxydine hydrochloride] and report
// result T

// query Now try Cn1c(Cn2ccc(C(F)(F)F)c(Oc3cc(Cl)cc(C#N)c3)c2=O)n[nH]c1=O .
// result F

// query What do you get for C=C(C)[C@@H]1CC[C@]2(CO)CC[C@]3(C)[C@H](CC[C@@H]4[C@@]5(C)CC[C@H](O)C(C)(C)[C@@H]5CC[C@]43C)[C@@H]12 ?
// result T

// query Param item: Cc1cccc(C)c1N(CC(=O)Nc1ccc(-c2ncon2)cc1)C(=O)C1CCS(=O)(=O)CC1
// result T

// query Now the compound C=C1CC[C@@H]2[C@](C)(CO)[C@H](O)CC[C@@]2(C)[C@@H]1C/C=C1/C(=O)OC[C@H]1O [Andrographolide]
// result T
